system: OVCAR-4; test: Cell viability of OVCAR-4 cells after treatment with test compound; type: cell-based; conditions: Homo sapiens
Structures can show the parent of a compound that is named as a salt.
Endpoint name: IC50

Molecule	Value measured
CN[C@@H](C)C(=O)N[C@H]1CCS[C@H]2CC(C)(C)[C@@H](C(=O)N[C@@H]3CCSc4ccccc43)N2C1=O [Compound 2, hydrochloride]	100 to 1000 nM
CC[C@H](NC)C(=O)N[C@H]1CCSC2CC(C)(C)[C@@H](C(=O)N[C@@H]3CCOc4ccccc43)N2C1=O (stereo partly drawn) [Compound 8, hydrochloride]	10 to 100 nM
CN[C@@H](C)C(=O)N[C@H]1CCS[C@H]2CC3(CC=CC3)[C@@H](C(=O)N[C@@H]3CCOc4ccccc43)N2C1=O [Compound 3]	10 to 100 nM

# context switch: different molecule, same IC50
Quick note, IC50 for CC[C@H](NC)C(=O)N[C@H]1CCO[C@H]2CC3(CC=CC3)[C@@H](C(=O)N[C@@H]3CCOc4ccccc43)N2C1=O [Compound 13] landed at 100 to 1000 nM

====

Listed compounds paired with reported IC50
system: OVCAR-4; experiment: Cell viability of OVCAR-4 cells after treatment with test compound; assay type: cell-based; settings: Homo sapiens
Counter-ions that a name gives are not always drawn.

Compound	Study target	Endpoint name	Value measured
CN[C@@H](C)C(=O)N[C@H]1CCS[C@H]2CC3(CCCC3)[C@@H](C(=O)N[C@@H]3CCSc4ccccc43)N2C1=O	OVCAR-4	IC50	100 to 1000 nM

Quick note, IC50 for CN[C@@H](C)C(=O)N[C@H]1CCS[C@H]2CC3(CCCC3)[C@@H](C(=O)N[C@@H]3CCOc4ccccc43)N2C1=O landed at 10 to 100 nM

Quick note, IC50 for CN[C@@H](C)C(=O)N[C@H]1CCS[C@H]2CC3(CC=CC3)[C@@H](C(=O)N[C@@H]3CCSc4ccccc43)N2C1=O landed at 100 to 1000 nM

Quick note, IC50 for CN[C@@H](C)C(=O)N[C@H]1CCS[C@H]2CC(C)(C)[C@@H](C(=O)N[C@@H]3CCOc4ccccc43)N2C1=O [Compound 1, hydrochloride] landed at 10 to 100 nM

Quick note, IC50 for CN[C@@H](C)NC(=O)N[C@H]1CCSC2CC(C)(C)[C@@H](C(=O)N[C@@H]3CCOc4ccccc43)N2C1=O (some centres unmarked) [Compound 7, hydrochloride] landed at > 1000 nM

Quick note, IC50 for CC[C@H](NC)C(=O)N[C@H]1CCO[C@H]2CC3(CCCC3)[C@@H](C(=O)N[C@@H]3CCOc4ccccc43)N2C1=O landed at 100 to 1000 nM

Quick note, IC50 for CN[C@@H](C)C(=O)N[C@H]1CCS[C@H]2CC3(CC=CC3)[C@@H](C(=O)N[C@@H]3CCCc4ccccc43)N2C1=O landed at 10 to 100 nM

Quick note, IC50 for CN[C@@H](C)C(=O)N[C@H]1CCO[C@H]2CC3(CCCC3)[C@@H](C(=O)N[C@@H]3CCOc4ccccc43)N2C1=O landed at 100 to 1000 nM
